- target_entity: ATP-dependent translocase ABCB1 (Homo sapiens) (UniProt P08183)
- Sequence (P08183 whole entry, looked up): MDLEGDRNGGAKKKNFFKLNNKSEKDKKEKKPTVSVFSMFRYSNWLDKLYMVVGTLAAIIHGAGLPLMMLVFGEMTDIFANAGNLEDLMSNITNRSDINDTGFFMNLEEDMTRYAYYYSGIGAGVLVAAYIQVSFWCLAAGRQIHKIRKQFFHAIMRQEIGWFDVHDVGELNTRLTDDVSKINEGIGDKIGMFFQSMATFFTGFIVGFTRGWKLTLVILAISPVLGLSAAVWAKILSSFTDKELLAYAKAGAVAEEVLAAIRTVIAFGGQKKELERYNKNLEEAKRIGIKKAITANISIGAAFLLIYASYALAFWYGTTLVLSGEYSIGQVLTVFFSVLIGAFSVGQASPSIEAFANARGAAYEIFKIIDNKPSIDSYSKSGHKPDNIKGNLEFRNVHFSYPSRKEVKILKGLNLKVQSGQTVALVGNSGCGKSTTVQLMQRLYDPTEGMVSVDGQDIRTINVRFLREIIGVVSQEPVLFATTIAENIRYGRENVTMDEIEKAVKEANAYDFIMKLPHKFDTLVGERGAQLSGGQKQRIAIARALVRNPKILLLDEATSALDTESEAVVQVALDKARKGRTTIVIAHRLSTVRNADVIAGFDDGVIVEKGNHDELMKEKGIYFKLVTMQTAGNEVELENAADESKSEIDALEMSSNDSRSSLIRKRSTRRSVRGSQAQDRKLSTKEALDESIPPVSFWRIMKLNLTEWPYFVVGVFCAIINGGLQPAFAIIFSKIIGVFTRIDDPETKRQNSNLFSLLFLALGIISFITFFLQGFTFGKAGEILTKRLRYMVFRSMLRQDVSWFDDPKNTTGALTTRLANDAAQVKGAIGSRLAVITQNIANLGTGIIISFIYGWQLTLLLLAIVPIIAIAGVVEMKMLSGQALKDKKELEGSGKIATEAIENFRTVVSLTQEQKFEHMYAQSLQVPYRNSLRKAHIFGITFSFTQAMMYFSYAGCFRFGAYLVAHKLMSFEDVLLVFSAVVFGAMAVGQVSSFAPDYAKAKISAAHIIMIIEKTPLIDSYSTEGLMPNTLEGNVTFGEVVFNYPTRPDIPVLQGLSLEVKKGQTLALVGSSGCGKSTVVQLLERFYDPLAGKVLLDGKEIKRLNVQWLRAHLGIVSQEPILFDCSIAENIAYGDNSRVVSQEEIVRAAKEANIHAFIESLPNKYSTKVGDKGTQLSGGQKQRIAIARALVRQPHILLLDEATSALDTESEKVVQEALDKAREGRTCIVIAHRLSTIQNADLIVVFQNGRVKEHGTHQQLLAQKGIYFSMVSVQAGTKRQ
- protocol_text: qHTS for characterization and localization of zebrafish homologs of the human ABCB1 multidrug transporter: P-gp overexpressing MDR-19 cells
- experimental_conditions: MDR-19 cells overexpressing P-gp, CellTiter-Glo luminescence viability, 72 h; series mostly up to 46.1 µM
Inconclusive results are not listed. The source made the active and inactive calls. Calls follow the shape of the dose curve; as a rule, active = well fitted inhibition curve with a large enough effect; inconclusive = small, poorly fitted or top-dose-only effect; inactive = flat fitted curve, though single readings scatter.
# valid calls are true (1) = active, false (0) = inactive; nothing else

Incoming: // outcome(item) with item = Cc1ccc(C(=O)N(CCCN)C(c2nc3cc(Cl)ccc3c(=O)n2Cc2ccccc2)C(C)C)cc1 (stereo not drawn)
Outgoing: true (1)

Incoming: // outcome(item) with item = CCc1cccc(CC)c1NC(=O)N1Cc2[nH]nc(NC(=O)c3ccc(N4CCN(C)CC4)cc3)c2C1
Outgoing: false (0)

Incoming: // outcome(item) with item = CCN(CCCO)CCCOc1ccc2c(Nc3cc(CC(=O)Nc4cccc(F)c4)[nH]n3)ncnc2c1
Outgoing: false (0)

Incoming: // outcome(item) with item = COC(C(=O)N1Cc2[nH]nc(NC(=O)c3ccc(N4CCN(C)CC4)cc3)c2C1)c1ccccc1 (stereo not drawn)
Outgoing: false (0)

Incoming: // outcome(item) with item = Cc1ccc(-c2ncn(-c3ccc(Nc4nccc(-c5cccc(N6CCOCC6)c5)n4)cc3)n2)cn1
Outgoing: true (1)

Incoming: // outcome(item) with item = CN(c1ncccc1CNc1nc(Nc2ccc3c(c2)CC(=O)N3)ncc1C(F)(F)F)S(C)(=O)=O
Outgoing: true (1)

Incoming: // outcome(item) with item = CN(C)C1CCN(C(=O)c2ccc(NC(=O)Nc3nc(N4CCOCC4)nc(N4CCOCC4)n3)cc2)CC1
Outgoing: false (0)

Please examine the following record next.
Incoming: // outcome(item) with item = C=CCNC1=C2CC(C)CC(OC)C(O)C(C)/C=C(\C)C(OC(N)=O)C(OC)/C=C/C=C(\C)C(=O)NC(=CC1=O)C2=O (stereo not drawn)
Outgoing: true (1)
